test.method.notes: in vivo
settings: mouse, iv, mice, i.v., read-out: LD50 (dose causing 50% mortality)
property.measured: LD50 (mg/kg)
The figure you give is taken to be in mg/kg; do not add the unit.

Example entries begin here.
{"columns": ["compound", "LD50 (mg/kg)"],
 "data": [
  ["CN1CC2CCC(N(C)C)C(C1)C2Oc1cccc(C(F)(F)F)c1 (stereo not shown) [compound 1539]", 64],
  ["CN1CC2CCC(N(C)C)C(C1)C2OC(=O)C1c2ccccc2Oc2ccccc21 (stereo not shown) [compound 1547]", 36.3],
  ["COc1cc(C(=O)OC2C3CCC(N(C)C)C2CN(C)C3)cc(OC)c1OC (stereo not shown) [compound 1529]", 35.2]
]}

Shifting focus to the compound that follows.
**Query** Need LD50 of CN1CC2CCC(N(C)C)C(C1)C2OC(=O)c1ccccc1 (stereo not shown) [compound 1542] , thanks.
**Result** 21.7
